Cited source: patent US10202388B2

- system.name: HeLa cell IDO1 (Homo sapiens (Human), UniProt P14902)
- Sequence (P14902 whole entry): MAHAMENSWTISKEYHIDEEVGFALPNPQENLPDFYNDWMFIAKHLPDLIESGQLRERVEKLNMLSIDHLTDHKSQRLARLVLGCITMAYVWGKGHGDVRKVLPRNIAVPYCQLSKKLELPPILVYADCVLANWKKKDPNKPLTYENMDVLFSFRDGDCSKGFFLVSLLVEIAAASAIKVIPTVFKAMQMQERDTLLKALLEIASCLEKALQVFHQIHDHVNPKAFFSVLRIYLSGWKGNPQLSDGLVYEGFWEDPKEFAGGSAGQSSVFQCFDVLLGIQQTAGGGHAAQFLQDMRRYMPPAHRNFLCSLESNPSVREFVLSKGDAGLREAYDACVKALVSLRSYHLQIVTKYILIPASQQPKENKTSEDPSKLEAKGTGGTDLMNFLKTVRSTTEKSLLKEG
- procedure.summary: HeLa cell based IDO1 inhibition assay (kynurenine readout, IFN-γ induced)
- experimental.setup: HeLa cells
pIC50: −log10 of the molar value.
Assignment: determine reported pIC50 for the given molecules.

IN: Give the measured pIC50 for O=S(=O)(Cc1ccccc1)NC1C2CC3CC1CC([C@@H](O)CC1c4c(F)cccc4-c4cncn41)(C3)C2 (stereo partly shown) [Compound 45A-4]
OUT: 6.30 to 7.00

IN: Give the measured pIC50 for OC(CC1c2ccccc2-c2cncn21)C12CC3CC(C1)C(Nc1nc4ccccc4s1)C(C3)C2 (single isomer, unassigned) [Compound 125B]
OUT: > 7.00

IN: Give the measured pIC50 for OC(CC1c2ccccc2-c2cncn21)C12CC3CC(CC(O)(C3)C1)C2 (stereo not shown)
OUT: 6.30 to 7.00

IN: Give the measured pIC50 for O=S(=O)(NC1C2CC3CC1CC(C(O)CC1c4c(F)cccc4-c4cncn41)(C3)C2)c1ccccc1 (single isomer, unassigned) [Compound 47B]
OUT: > 7.00

IN: Give the measured pIC50 for O=C(Nc1ccc(F)cc1)NC1C2CC3CC1CC(C(O)CC1c4c(F)cccc4-c4cncn41)(C3)C2 (stereo not shown) [Compound 93A]
OUT: > 7.00

IN: Give the measured pIC50 for O=S(=O)(Cc1ccc(F)cc1)NC1C2CC3CC1CC(C(O)CC1c4c(F)cccc4-c4cncn41)(C3)C2 (stereo not shown)
OUT: > 7.00

IN: Give the measured pIC50 for OC1C2CC3CC1CC([C@@H](O)CC1c4c(F)cccc4-c4cncn41)(C3)C2 (stereo partly shown) [Compound 23A-3]
OUT: > 7.00

IN: Give the measured pIC50 for O=C(Nc1ccccc1)NC1C2CC3CC1CC(C(O)CC1c4c(F)cccc4-c4cncn41)(C3)C2 (single isomer, unassigned) [Compound 55A]
OUT: > 7.00

IN: Give the measured pIC50 for OC(CC1c2ccccc2-c2cncn21)C12CC3CC(CC(C3)C1)C2 (stereo not shown) [Compound 1]
OUT: 6.30 to 7.00

IN: Give the measured pIC50 for CS(=O)(=O)NC12CC3CC(C1)C(C(O)CC1c4ccccc4-c4cncn41)C(C3)C2 (single isomer, unassigned) [Compound 168B]
OUT: 5.00 to 6.00

IN: Give the measured pIC50 for CS(=O)(=O)NC12CC3CC(C1)C(C(O)CC1c4ccccc4-c4cncn41)C(C3)C2 (single isomer, unassigned) [Compound 168A]
OUT: > 7.00

IN: Give the measured pIC50 for OC(CC1c2c(F)cccc2-c2cncn21)C12CC3CC(CC(C3)C1)C2 (stereo not shown) [Compound 25]
OUT: 6.30 to 7.00

IN: Give the measured pIC50 for CS(=O)(=O)c1ccc(NC(=O)NC2C3CC4CC2CC(C(O)CC2c5c(F)cccc5-c5cncn52)(C4)C3)cc1 (stereo not shown)
OUT: 6.30 to 7.00

---

- system.name: HeLa cell IDO1 (Homo sapiens (Human))
- procedure.summary: HeLa cell based IDO1 inhibition assay (kynurenine readout, IFN-γ induced)
- experimental.setup: HeLa cells
- Description: HeLa cell line was purchased from ATCC, cultured in MEM/EBSS medium supplemented with 10% FBS, penn-step (100,000 U/L), non-essential amino acid (0.1 Mm), sodium pyruvate (1.0 Mm). Cells were cultured at 37° C., 95% humidity and 5% CO2. […] The detailed experimental method is as follow: 25,000 HeLa cells were placed on 96-well plates. […] The yellow color derived from kynurenine was recorded by measuring absorbance at 480 nm using a microplate reader (TECAN Infinite M1000 Pro).
Assignment: determine reported IC50 for the given molecules.

IN: // fetch IC50 for CCS(=O)(=O)NC12CC3CC(C1)C(C(O)CC1c4ccccc4-c4cncn41)C(C3)C2 (stereo not shown) [Compound 167A] ; system: HeLa cell IDO1 (Homo sapiens (Human))
OUT: 100 to 500 nM

IN: // fetch IC50 for O=C(NC1C2CC3CC1CC(C(O)CC1c4ccccc4-c4cncn41)(C3)C2)c1ccccc1 (single isomer, unassigned) [Compound 52A] ; system: HeLa cell IDO1 (Homo sapiens (Human))
OUT: < 100 nM

IN: // fetch IC50 for CC(=O)Nc1ccc(NC(=O)NC2C3CC4CC2CC(C(O)CC2c5ccccc5-c5cncn52)(C4)C3)cc1 (stereo not shown) ; system: HeLa cell IDO1 (Homo sapiens (Human))
OUT: 1000 to 10000 nM

IN: // fetch IC50 for OC1C2CC3CC1CC([C@H](O)CC1c4c(F)cccc4-c4cncn41)(C3)C2 (stereo partly shown) [Compound 26A] ; system: HeLa cell IDO1 (Homo sapiens (Human))
OUT: < 100 nM

---

- system.name: Human recombinant IDO1 (Homo sapiens (Human))
- procedure.summary: IDO1 enzymatic assay (UV absorption at 321 nm)
- experimental.setup: human recombinant IDO1, 80 min incubation, room temperature; read-out: hIDO1 IC50
- Experimental: The detailed experimental method is as follow: The compounds described in this disclosure were dissolved in 10% DMSO to predefined concentration. All of the reactions were conducted at room temperature in this disclosure. Human recombinant IDO1 (BPS Bioscience) was added so that its concentration was 200 nm in the reaction buffer solution (200 μL). […] After 80 min incubation of the reaction solution, the UV absorbance was measured using TECAN Infinite M1000 plate reader. […]
pIC50: −log10 of the molar value.
quantity.name: pIC50

IN: Give the measured pIC50 for OC(CC1c2c(F)cccc2-c2cncn21)C12CC3CC(CC(C3)C1)C2 (stereo not shown) [Compound 21]
OUT: > 7.00

IN: Give the measured pIC50 for OC1C2CC3CC1CC([C@H](O)CC1c4c(F)cccc4-c4cncn41)(C3)C2 (stereo partly shown) [Compound 23A-2]
OUT: 5.00 to 6.00

IN: Give the measured pIC50 for OC1C2CC3CC1CC([C@@H](O)CC1c4c(F)cccc4-c4cncn41)(C3)C2 (stereo partly shown) [Compound 26A-2]
OUT: 5.00 to 6.00

IN: Give the measured pIC50 for O=C(C[C@@H]1c2ccccc2-c2cncn21)C12CC3CC(CC(C3)C1)C2 (single isomer, unassigned) [Compound 1-3]
OUT: > 7.00

IN: Give the measured pIC50 for OC1C2CC3CC1CC([C@@H](O)CC1c4c(F)cccc4-c4cncn41)(C3)C2 (stereo partly shown) [Compound 23A-3]
OUT: > 7.00

IN: Give the measured pIC50 for OC(CC1c2cccnc2-c2cncn21)C1CCCCC1 (stereo not shown)
OUT: 5.00 to 6.00

IN: Give the measured pIC50 for OC1C2CC3CC1CC(C(O)CC1c4ccccc4-c4cncn41)(C3)C2 (stereo not shown) [Compound 14A]
OUT: > 7.00

IN: Give the measured pIC50 for O=C(C[C@H]1c2ccccc2-c2cncn21)C12CC3CC(CC(C3)C1)C2 (single isomer, unassigned) [Compound 1-2]
OUT: > 7.00

IN: Give the measured pIC50 for O=C(C[C@@H]1c2ccccc2-c2cncn21)C12CC3CC(CC(C3)C1)C2 (single isomer, unassigned) [Compound 1-4]
OUT: 5.00 to 6.00

IN: Give the measured pIC50 for OC1C2CC3CC1CC([C@@H](O)CC1c4c(F)cccc4-c4cncn41)(C3)C2 (stereo partly shown) [Compound 26B]
OUT: 6.30 to 7.00

IN: Give the measured pIC50 for CS(=O)(=O)NC1C2CC3CC1CC(C(O)CC1c4c(F)cccc4-c4cncn41)(C3)C2 (stereo not shown)
OUT: > 7.00

IN: Give the measured pIC50 for CC1(O)C2CC3CC1CC(C(O)CC1c4ccccc4-c4cncn41)(C3)C2 (stereo not shown) [Compound 11A-2]
OUT: > 7.00

IN: Give the measured pIC50 for OCCOC1C2CC3CC1CC(C(O)CC1c4c(F)cccc4-c4cncn41)(C3)C2 (stereo not shown) [Compound 61A]
OUT: > 7.00

IN: Give the measured pIC50 for OC1C2CC3CC1CC([C@H](O)CC1c4c(F)cccc4-c4cncn41)(C3)C2 (stereo partly shown) [Compound 26A]
OUT: > 7.00

IN: Give the measured pIC50 for OC1C2CC3CC1CC(C(O)CC1c4ccccc4-c4cncn41)(C3)C2 (stereo not shown) [Compound 10A-3]
OUT: 5.00 to 6.00

IN: Give the measured pIC50 for OC(CC1c2ncccc2-c2cncn21)C12CC3CC(CC(C3)C1)C2 (stereo not shown)
OUT: 6.30 to 7.00

---

- system.name: Human recombinant IDO1 (Homo sapiens (Human), UniProt P14902)
- Sequence (P14902 whole entry): as above
- procedure.summary: IDO1 enzymatic assay (UV absorption at 321 nm)
- experimental.setup: human recombinant IDO1, 80 min incubation, room temperature; read-out: hIDO1 IC50
quantity.name: IC50

IN: Give the measured IC50 for O=C(Nc1ccccc1)NC1C2CC3CC1CC(C(O)CC1c4c(F)cccc4-c4cncn41)(C3)C2 (centres unmarked)
OUT: < 0.1 µM

IN: Give the measured IC50 for OC(CC1c2cccc(F)c2-c2cncn21)C12CC3CC(CC(C3)C1)C2 (centres unmarked)
OUT: 0.1 to 0.5 µM

IN: Give the measured IC50 for OC1C2CC3CC1CC(C(O)CC1c4ccccc4-c4cncn41)(C3)C2 (centres unmarked) [Compound 10A]
OUT: < 0.1 µM

IN: Give the measured IC50 for OC1C2CC3CC1CC([C@@H](O)CC1c4c(F)cccc4-c4cncn41)(C3)C2 (some centres unmarked) [Compound 23B]
OUT: 0.1 to 0.5 µM

IN: Give the measured IC50 for OC(CC1c2ccccc2-c2cncn21)C12CC3CC(CC(O)(C3)C1)C2 (centres unmarked)
OUT: < 0.1 µM

IN: Give the measured IC50 for OC1C2CC3CC1CC([C@H](O)CC1c4c(F)cccc4-c4cncn41)(C3)C2 (some centres unmarked) [Compound 26A-3]
OUT: < 0.1 µM

IN: Give the measured IC50 for O=C(Cc1ccccc1)NC1C2CC3CC1CC(C(O)CC1c4ccccc4-c4cncn41)(C3)C2 (single isomer, unassigned) [Compound 53A]
OUT: < 0.1 µM

IN: Give the measured IC50 for OC(CC1c2cc(F)ccc2-c2cncn21)C12CC3CC(CC(C3)C1)C2 (centres unmarked)
OUT: 0.1 to 0.5 µM

IN: Give the measured IC50 for O=C(NC1C2CC3CC1CC(C(O)CC1c4ccccc4-c4cncn41)(C3)C2)c1ccccc1 (single isomer, unassigned) [Compound 52A]
OUT: < 0.1 µM

IN: Give the measured IC50 for OC(CC1c2ncccc2-c2cncn21)C1CCCCC1 (centres unmarked)
OUT: 0.1 to 0.5 µM

IN: Give the measured IC50 for OC1C2CC3CC1CC([C@@H](O)CC1c4c(F)cccc4-c4cncn41)(C3)C2 (some centres unmarked) [Compound 23A-4]
OUT: 1 to 10 µM

IN: Give the measured IC50 for CC(C)(O)CCOC1C2CC3CC1CC(C(O)CC1c4c(F)cccc4-c4cncn41)(C3)C2 (centres unmarked)
OUT: 0.1 to 0.5 µM

IN: Give the measured IC50 for OC(CC1c2c(F)cccc2-c2cncn21)C12CC3CC(CC(O)(C3)C1)C2 (centres unmarked)
OUT: < 0.1 µM

IN: Give the measured IC50 for CC1(O)C2CC3CC1CC([C@H](O)CC1c4ccccc4-c4cncn41)(C3)C2 (some centres unmarked) [Compound 14A-4]
OUT: < 0.1 µM

IN: Give the measured IC50 for O=S(=O)(Cc1ccccc1)NC1C2CC3CC1CC([C@@H](O)CC1c4c(F)cccc4-c4cncn41)(C3)C2 (some centres unmarked) [Compound 45A-4]
OUT: 0.1 to 0.5 µM

IN: Give the measured IC50 for OC1C2CC3CC1CC([C@H](O)CC1c4c(F)cccc4-c4cncn41)(C3)C2 (some centres unmarked) [Compound 23A]
OUT: < 0.1 µM

IN: Give the measured IC50 for OC1C2CC3CC1CC([C@@H](O)CC1c4ccccc4-c4cncn41)(C3)C2 (some centres unmarked) [Compound 10B]
OUT: 0.1 to 0.5 µM

IN: Give the measured IC50 for OC(Cn1c2ccccc2n2cncc12)C12CC3CC(CC(C3)C1)C2 (centres unmarked)
OUT: 1 to 10 µM

IN: Give the measured IC50 for CC1(O)C2CC3CC1CC([C@@H](O)CC1c4ccccc4-c4cncn41)(C3)C2 (some centres unmarked) [Compound 14A-1]
OUT: 1 to 10 µM

IN: Give the measured IC50 for OC(CC1c2ccccc2-c2cncn21)C12CC3CC(CC(C3)C1)C2 (centres unmarked) [Compound 1]
OUT: < 0.1 µM

IN: Give the measured IC50 for O=C(C[C@H]1c2ccccc2-c2cncn21)C12CC3CC(CC(C3)C1)C2 (single isomer, unassigned) [Compound 1-1]
OUT: 1 to 10 µM

IN: Give the measured IC50 for OC(CC1c2ccccc2-c2cncn21)C12CC3CC(CC(C3)C1)C2 (centres unmarked) [Compound 13]
OUT: < 0.1 µM

IN: Give the measured IC50 for O=C(CC1CCCCC1)NC1C2CC3CC1CC(C(O)CC1c4c(F)cccc4-c4cncn41)(C3)C2 (centres unmarked)
OUT: < 0.1 µM

IN: Give the measured IC50 for OC1C2CC3CC1CC([C@H](O)CC1c4c(F)cccc4-c4cncn41)(C3)C2 (some centres unmarked) [Compound 23A-1]
OUT: < 0.1 µM

IN: Give the measured IC50 for OC(CC1c2c(F)cccc2-c2cncn21)C12CC3CC(CC(C3)C1)C2 (centres unmarked) [Compound 25]
OUT: < 0.1 µM

IN: Give the measured IC50 for O=C(NC1C2CC3CC1CC(C(O)CC1c4ccccc4-c4cncn41)(C3)C2)c1ccccc1 (single isomer, unassigned) [Compound 52B]
OUT: 0.1 to 0.5 µM

IN: Give the measured IC50 for O=S(=O)(Cc1ccccc1)NC1C2CC3CC1CC([C@H](O)CC1c4c(F)cccc4-c4cncn41)(C3)C2 (some centres unmarked) [Compound 45A-1]
OUT: < 0.1 µM

IN: Give the measured IC50 for O=S(=O)(Cc1ccccc1)NC1C2CC3CC1CC(C(O)CC1c4c(F)cccc4-c4cncn41)(C3)C2 (centres unmarked) [Compound 45A]
OUT: < 0.1 µM

IN: Give the measured IC50 for OC(CC1c2ccccc2-c2cncn21)C12CC3CC(C1)C(c1ccccc1)C(C3)C2 (centres unmarked) [Compound 62A]
OUT: < 0.1 µM
